Values were extracted from PubChem BioAssay (NCI).

Tested on: SNB-19 CNS
EXPERIMENT_NOTES: NCI tumour cell line growth inhibition, 48 h

>  <MOLECULE>
O=c1[nH]c(=O)c2cn[nH]c2[nH]1

>  <STUDY_SYSTEM>
SNB-19 CNS

>  <TGI>
> 100 µM

$$$$
>  <MOLECULE>
O=C1CC(O)CC(=O)C1=C(O)CCCCCCCCCCc1ccccc1 (stereo not given)

>  <STUDY_SYSTEM>
SNB-19 CNS

>  <TGI>
> 100 µM

$$$$
>  <MOLECULE>
CC[C@@H]1c2c(C#N)ncn2-c2cnc(Nc3ccc(C(=O)NC4CCN(C5CCN(CC6CC6)CC5)CC4)cc3OC)nc2N1C1CCCC1

>  <STUDY_SYSTEM>
SNB-19 CNS

>  <TGI>
2.05 µM

$$$$
>  <MOLECULE>
CC[C@H](CCCC[C@H]1CC[C@@H]2CC(=O)C[C@H]12)OC

>  <STUDY_SYSTEM>
SNB-19 CNS

>  <TGI>
> 100 µM

$$$$
>  <MOLECULE>
CCOC(=O)NC(Nc1ncccn1)(C(=O)OCC)C(F)(F)F (stereo not given)

>  <STUDY_SYSTEM>
SNB-19 CNS

>  <TGI>
> 100 µM

$$$$
>  <MOLECULE>
COc1ccc(C(=S)N2CCN(c3cccc(C)c3)CC2)cc1OC

>  <STUDY_SYSTEM>
SNB-19 CNS

>  <TGI>
> 100 µM

$$$$
>  <MOLECULE>
CCOC(=O)c1cc(=O)c2ccnc3c2n1CCS3

>  <STUDY_SYSTEM>
SNB-19 CNS

>  <TGI>
> 100 µM

$$$$
>  <MOLECULE>
CCOC(=O)c1nn2c(nc1=O)sc1ccc3ccccc3c12

>  <STUDY_SYSTEM>
SNB-19 CNS

>  <TGI>
> 100 µM

$$$$
>  <MOLECULE>
CC1(C)CC(C2=NCCO2)CC(C)(C)N1

>  <STUDY_SYSTEM>
SNB-19 CNS

>  <TGI>
> 100 µM

$$$$
>  <MOLECULE>
CC1(C)C2C=C(CCN3CCOCC3)CC1C2 (stereo not given)

>  <STUDY_SYSTEM>
SNB-19 CNS

>  <TGI>
> 100 µM

$$$$
>  <MOLECULE>
c1cncc(C2(c3cc4ccccc4[nH]3)COCO2)c1 (stereo not given)

>  <STUDY_SYSTEM>
SNB-19 CNS

>  <TGI>
> 100 µM

$$$$
>  <MOLECULE>
O=C(NCCCCNc1cccccc1=O)OCc1ccccc1

>  <STUDY_SYSTEM>
SNB-19 CNS

>  <TGI>
> 100 µM

$$$$
>  <MOLECULE>
CC(Cc1ccccc1)Nc1ncnc2c1ncn2C1OC(CO)CC1O (stereo not given)

>  <STUDY_SYSTEM>
SNB-19 CNS

>  <TGI>
> 100 µM

$$$$
>  <MOLECULE>
C=C(CCOC)CCC1CCCCC(=C)[C@H]1OC(C)=O (stereo not given in full)

>  <STUDY_SYSTEM>
SNB-19 CNS

>  <TGI>
> 100 µM

$$$$
>  <MOLECULE>
C=C(C)[C@@H]1CC[C@]2(C)CC[C@]3(C)[C@H](CC[C@@H]4[C@@]5(C)CC[C@H](O)C(C)(C)[C@@H]5CC[C@]43C)[C@@H]12

>  <STUDY_SYSTEM>
SNB-19 CNS

>  <TGI>
> 62.8 µM

$$$$
>  <MOLECULE>
CN(O)C(=O)SCC(NC(=O)CCC(N)C(=O)O)C(=O)NCC(=O)O (stereo not given)

>  <STUDY_SYSTEM>
SNB-19 CNS

>  <TGI>
> 2000 µM

$$$$
>  <MOLECULE>
c1coc(CNc2ncnc3[nH]ncc23)c1

>  <STUDY_SYSTEM>
SNB-19 CNS

>  <TGI>
> 100 µM

$$$$
>  <MOLECULE>
C=C1C(=O)O[C@H]2[C@H]1CC/C(COC(=O)CSCSCC(=O)OC/C1=C/CC[C@@]3(C)O[C@H]3[C@H]3OC(=O)C(=C)[C@@H]3CC1)=C\CC[C@@]1(C)O[C@@H]21

>  <STUDY_SYSTEM>
SNB-19 CNS

>  <TGI>
5.99 µM

$$$$
>  <MOLECULE>
CNC(=O)Nc1nc2ccc([N+](=O)[O-])cc2[nH]1

>  <STUDY_SYSTEM>
SNB-19 CNS

>  <TGI>
> 100 µM

$$$$
>  <MOLECULE>
Cc1nnn[n-]1.N.N.N.N.N.[Cl-].[Co+3]

>  <STUDY_SYSTEM>
SNB-19 CNS

>  <TGI>
> 100 µM

$$$$
